Ref: patent US7763598B2

- TARGET DESC: full-length recombinant rat vitamin D receptor (Rattus norvegicus, UniProt P13053)
- Construct: Full-length recombinant rat receptor was expressed in E. coli; histidine tag (C)
- Sequence (P13053 whole entry): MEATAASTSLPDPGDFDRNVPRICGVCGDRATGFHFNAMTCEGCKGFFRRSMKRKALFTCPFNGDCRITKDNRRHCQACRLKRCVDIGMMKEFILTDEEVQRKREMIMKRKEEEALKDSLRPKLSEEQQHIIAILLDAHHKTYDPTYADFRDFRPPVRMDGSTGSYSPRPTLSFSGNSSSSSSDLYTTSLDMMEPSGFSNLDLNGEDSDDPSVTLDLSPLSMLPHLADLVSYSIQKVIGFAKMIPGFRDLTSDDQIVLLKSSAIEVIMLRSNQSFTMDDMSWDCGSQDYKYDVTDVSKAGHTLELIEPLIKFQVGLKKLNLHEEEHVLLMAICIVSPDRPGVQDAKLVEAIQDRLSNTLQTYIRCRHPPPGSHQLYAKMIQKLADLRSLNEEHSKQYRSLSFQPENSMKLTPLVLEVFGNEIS
- TEST METHOD NOTES: Vitamin D receptor binding (competition with [3H]-1,25(OH)2D3)
- CONDITIONS USED: full-length recombinant rat VDR; FIG. 1

>  <COMPOUND>
CCC(C)(C)C1CCC2C(=CC=C3CC(O)C(=CCCO)C(O)C3)CCCC21C (stereo not shown) [20DC]

>  <READING UNIT>
nM

>  <Ki>
0.08

$$$$

====

- System: 24-hydroxylase (24Ohase) gene promoter
- TEST METHOD NOTES: In vitro transcription assay (luciferase reporter in ROS 17/2.8 bone cells)
- Format: cell-based
- CONDITIONS USED: ROS 17/2.8 cells, 24Ohase promoter-luciferase, 16 h; FIG. 3; read-out: EC50, transcriptional activity in bone cells
- Method: Transcription activity was measured in ROS 17/2.8 (bone) cells that were stably transfected with a 24-hydroxylase (24Ohase) gene promoter upstream of a luciferase reporter gene (Arbour et al., 1998). Cells were given a range of doses. Sixteen hours after dosing the cells were harvested and luciferase activities were measured using a luminometer. RLU=Relative Luciferase Units.
pEC50: −log10 of the molar value.
MEASUREMENT TYPE: pEC50

>  <COMPOUND>
C=C1/C(=C\C=C2/CCC[C@]3(C)[C@@H]([C@H](C)CCCC(C)(C)O)CC[C@@H]23)C[C@@H](O)C[C@@H]1O [1,25(OH)2D3, 1α,25-dihydroxyvitamin D3, reference compound]

>  <TARGET DESC>
24-hydroxylase (24Ohase) gene promoter

>  <MEASUREMENT TYPE>
pEC50

>  <DATA VALUE>
9.70

$$$$
>  <COMPOUND>
CCC(C)(C)C1CCC2C(=CC=C3CC(O)C(=CCCO)C(O)C3)CCCC21C (centres unmarked) [20DC]

>  <TARGET DESC>
24-hydroxylase (24Ohase) gene promoter

>  <MEASUREMENT TYPE>
pEC50

>  <DATA VALUE>
8.70

$$$$
